Data origin: ChEMBL document CHEMBL1201862

Would you mind telling me the reported EC50 of each entry?
- SYSTEM NAME: Luciferin 4-monooxygenase (Photinus pyralis)
- Sequence (P08659 whole entry): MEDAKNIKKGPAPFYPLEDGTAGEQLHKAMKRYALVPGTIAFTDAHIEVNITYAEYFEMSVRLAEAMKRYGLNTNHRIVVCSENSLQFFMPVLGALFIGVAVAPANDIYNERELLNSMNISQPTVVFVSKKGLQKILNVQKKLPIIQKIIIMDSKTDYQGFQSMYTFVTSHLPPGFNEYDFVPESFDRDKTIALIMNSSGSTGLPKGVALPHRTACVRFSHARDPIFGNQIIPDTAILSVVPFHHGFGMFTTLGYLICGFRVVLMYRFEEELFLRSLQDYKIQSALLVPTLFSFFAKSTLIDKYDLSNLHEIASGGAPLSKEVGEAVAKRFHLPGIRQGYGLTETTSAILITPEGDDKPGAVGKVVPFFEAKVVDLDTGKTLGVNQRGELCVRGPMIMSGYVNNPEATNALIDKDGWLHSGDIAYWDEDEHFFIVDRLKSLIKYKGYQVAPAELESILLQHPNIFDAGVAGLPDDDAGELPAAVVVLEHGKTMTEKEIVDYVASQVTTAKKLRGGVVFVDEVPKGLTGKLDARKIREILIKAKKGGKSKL
- METHOD NOTES: firefly luciferase enzyme inhibitors, dose response, biochemical, luminescence (AID 1891)
Active and inactive are the calls of the source.

Query :: // EC50 lookup, key: Cc1csc(NC(=O)c2cn3ccccc3n2)n1
Result :: 8.32 µM (active)

Query :: What do you have for Cc1ccc(S(=O)(=O)CCC(=O)OCC(=O)NCC(=O)Nc2cccc(C)c2C)cc1 ?
Result :: > 112 µM (not active)

Query :: Same question for COc1cc2c(cc1OC)-c1cc(Nc3ccccc3)nc(=O)n1CC2 please.
Result :: > 112 µM (not active)

Query :: Please give the result for Cc1cnc([N+](=O)[O-])n1CCOC(=O)NC(=O)c1cccc(F)c1 too.
Result :: > 112 µM (not active)

Query :: What about COc1ccccc1NC(=O)NC1(C(=O)N2CCCCCC2)CCCCC1 ?
Result :: > 112 µM (not active)

Query :: Now consider CCN(C(=O)CN1C(=O)NC(c2ccccc2)(c2ccccc2)C1=O)c1ccccc1 and answer again.
Result :: > 112 µM (not active)

Query :: // same read-out, input: Cc1ccccc1N1C(=O)CC(Sc2nnc(-c3ccccc3)o2)C1=O (stereo not given)
Result :: > 112 µM (not active)

Query :: Now consider CCNC(=O)c1c(NC(C)=O)sc2c1CCCC2 .
Result :: > 112 µM (not active)

Query :: Follow-up entry: COc1ccc(NC(=O)C2CCCN(c3nn4c(=O)cc(C)nc4s3)C2)cc1 (stereo not given)
Result :: > 112 µM (not active)

Query :: Moving on to the next compound: COc1cccc(/C=N/Nc2ccc(C(=O)O)cc2)c1O
Result :: 0.693 µM (active)

====

- Test system: Streptococcus sp. 'group A'
- METHOD NOTES: growth inhibition of control SK(-) GAS strain, dose response, counter-screen for streptokinase expression inhibitor project, luminescence, kanamycin, BacTiterGlo, confirmation (AID 1900)
- Assay type: functional, organism-based
The source made the active and inactive calls.
PROPERTY NAME: EC50

Query :: # query: EC50 of entry COc1cc(NS(=O)(=O)c2ccc(C)cc2)c2ncccc2c1
Result :: 2.6 µM (active)

Query :: Next entry: CC(C)=CCc1cc([C@@H]2COc3c(ccc4c3C=CC(C)(C)O4)C2)c(O)cc1O
Result :: 1.8 µM (active)

Query :: Now try COc1ccc(C2CC(c3cccs3)=NN2C(=O)c2ccc(Br)o2)cc1 (configuration not stated) .
Result :: 6.42 µM (active)

Query :: Also, O=C(/C(=N/Nc1cccc([N+](=O)[O-])c1)C(=O)C(F)(F)F)c1ccc(Br)cc1 please.
Result :: 7.63 µM (active)

Query :: Try this compound next: O=C1CCSc2ccc(Cl)cc2N1Cc1ccc(Cl)cc1
Result :: 7.8 µM (active)

Query :: // same read-out, input: CC(C)(C)c1ccc(CSc2cnn(C(C)(C)C)c(=O)c2Cl)cc1 [PYRIDABEN]
Result :: 4.13 µM (active)

Query :: How about this compound: Cc1ccc(Cn2c(C(CO)Nc3nc(-c4ccc(F)cc4)cs3)nc3ccccc32)cc1 (configuration not stated)
Result :: 5.27 µM (active)

====

- SYSTEM NAME: Cytochrome P450 2C19 (Homo sapiens)
- Sequence (P33261 whole entry): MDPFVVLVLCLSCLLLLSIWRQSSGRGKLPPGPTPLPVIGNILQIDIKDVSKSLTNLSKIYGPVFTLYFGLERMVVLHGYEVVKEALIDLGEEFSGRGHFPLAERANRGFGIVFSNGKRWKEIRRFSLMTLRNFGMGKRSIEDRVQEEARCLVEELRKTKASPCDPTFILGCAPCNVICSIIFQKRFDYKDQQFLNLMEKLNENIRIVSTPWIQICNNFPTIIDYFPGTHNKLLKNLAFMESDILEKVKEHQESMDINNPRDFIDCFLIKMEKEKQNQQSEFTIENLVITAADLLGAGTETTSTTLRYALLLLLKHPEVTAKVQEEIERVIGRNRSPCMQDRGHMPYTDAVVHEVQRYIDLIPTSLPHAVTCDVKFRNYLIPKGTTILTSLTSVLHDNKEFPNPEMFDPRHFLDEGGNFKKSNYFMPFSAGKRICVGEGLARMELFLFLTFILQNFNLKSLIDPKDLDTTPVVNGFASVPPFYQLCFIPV
- METHOD NOTES: Cytochrome panel assay with activity outcomes. Panel member name: p450-cyp2c19 Compounds with AC50 equal or less than 10 uM are considered active
- Format: functional
PROPERTY NAME: AC50

Known AC50 results, listed for orientation:
CHEMICAL SMILES: CC(C)(C)COS(=O)OCC(C)(C)C
AC50: inconclusive
--
CHEMICAL SMILES: CN1CCc2nc(N)nc(-c3nc(N)nc4c3CN(C)CC4)c2C1
AC50: inconclusive
--
CHEMICAL SMILES: O=c1c2cnn(-c3ccccc3)c2nnn1/N=C/c1cccnc1
AC50: inconclusive
--
CHEMICAL SMILES: Cn1cnc([N+](=O)[O-])c1SCC(=O)O
AC50: inconclusive

With those in mind, consider the next compound.
Query :: AC50 lookup needed for N#Cc1c(NC(=O)CCC(=O)O)ccc2ccccc12 , thanks.
Result :: inconclusive

====

- SYSTEM NAME: Ubiquitin-conjugating enzyme E2 N (Homo sapiens, UniProt P61088)
- Sequence (P61088 whole entry): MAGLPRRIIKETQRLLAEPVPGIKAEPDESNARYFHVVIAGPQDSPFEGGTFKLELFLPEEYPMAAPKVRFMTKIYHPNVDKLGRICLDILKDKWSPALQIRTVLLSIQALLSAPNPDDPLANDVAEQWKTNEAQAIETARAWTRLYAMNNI
- Format: functional
Calls of active or inactive are those of the source.
Mark one answer only. Choices: TRUE for active, FALSE for inactive

Query :: Hi team, can someone confirm the assay call for CCn1c(=O)cc(SCC(=O)NCCCN2CCN(c3ccc(F)cc3)CC2)c2ccccc21 ?
Result :: TRUE

Query :: Same question for O=C(CSc1cc(Cl)ccc1Cl)NCC(=O)Nc1ccc(F)c(F)c1F please.
Result :: TRUE

Query :: Next up: CCOC(=O)c1c(C)c2c(n1C)CCC/C2=N\O
Result :: TRUE

Query :: Please give the result for CNC(=O)c1ccsc1NC(=O)C1CCCN1S(=O)(=O)c1cccs1 (centres undefined) too.
Result :: FALSE

====

- METHOD NOTES: cytotoxicity toward NIH3T3 fibroblasts, dose response, counter-screen, cell-based, ATP luminescence, mouse fibroblasts (AID 2010);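 also: cells exposed to compound for about 90 hours before reading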
- Type: functional
The source made the active and inactive calls.
PROPERTY NAME: EC50

Query :: GET /values?readout=EC50&item= Nc1c(C(=O)NCc2ccco2)c2nc3ccccc3nc2n1CCN1CCCCC1
Result :: 9.81 µM (active)

Query :: What do you get for C=CCc1c(C)nc(-c2ccccc2)nc1N/N=C/c1ccncc1 ?
Result :: 6.59 µM (active)

Query :: What do we get for CCOc1ccccc1/N=C1\SC(CC(=O)Nc2ccc(OC)cc2OC)C(=O)N1CCC1=CCCCC1 (stereo unspecified) ?
Result :: > 60 µM (not active)

Query :: Now consider Cc1ccnc(NS(=O)(=O)c2ccc(NC(=O)c3ccc([N+](=O)[O-])s3)cc2)n1 .
Result :: > 60 µM (not active)

Query :: Would you mind doing CC12CCC(C(=O)N3CCN(C(c4ccccc4)c4ccccc4)CC3)(OC1=O)C2(C)C (stereo unspecified) as well?
Result :: > 60 µM (inconclusive)

Query :: Record: CC(=O)/C(=N\Nc1ccc(Cl)cc1Cl)Sc1cccc2cccnc12
Result :: 26.7 µM (active)

====

- SYSTEM NAME: Cytochrome P450 2D6 (Homo sapiens, UniProt P10635);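 also: CYP2D6 member of a cytochrome P450 panel assay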
- Sequence (P10635 whole entry): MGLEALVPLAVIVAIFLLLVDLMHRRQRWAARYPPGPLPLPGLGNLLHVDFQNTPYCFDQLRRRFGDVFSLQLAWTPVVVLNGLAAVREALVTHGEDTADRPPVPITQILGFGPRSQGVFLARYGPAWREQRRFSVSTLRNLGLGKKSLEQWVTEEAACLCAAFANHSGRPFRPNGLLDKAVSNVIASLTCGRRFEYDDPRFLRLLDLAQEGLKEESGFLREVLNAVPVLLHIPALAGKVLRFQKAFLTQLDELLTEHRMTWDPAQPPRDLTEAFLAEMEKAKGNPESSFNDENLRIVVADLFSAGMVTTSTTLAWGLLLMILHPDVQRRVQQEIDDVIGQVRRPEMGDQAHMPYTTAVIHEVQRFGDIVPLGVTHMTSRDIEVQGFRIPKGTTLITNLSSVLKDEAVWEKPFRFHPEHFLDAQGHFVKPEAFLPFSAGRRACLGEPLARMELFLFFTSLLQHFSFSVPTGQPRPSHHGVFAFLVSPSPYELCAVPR
Please go through the items and note down their AC50.

Query :: GET /values?readout=AC50&item= O=c1c2cnn(-c3ccccc3)c2nnn1/N=C/c1cccnc1
Result :: 11.2 µM (inconclusive)

Query :: Queued: CN(Cc1ccco1)c1ncnc2ccc(-c3cccc(C#N)c3)cc12
Result :: 25.1 µM (inconclusive)

Query :: Okay, and O=C(CCN1C(=O)S/C(=C\c2ccccc2)C1=O)Nc1ccc(S(=O)(=O)Nc2nccs2)cc1 ?
Result :: 6.31 µM (inconclusive)

Query :: Check CC(C)(C)c1cc2cccnc2n1Cc1ccccc1 too.
Result :: 0.501 µM (inconclusive)

Query :: Input O=C(COC(=O)c1ccccc1Nc1cccc(C(F)(F)F)c1)NCc1ccco1
Result :: 10 µM (inconclusive)

Query :: What do you have for CCCCCOc1ccc(OC(=O)c2ccncc2)cc1 ?
Result :: 3.98 µM (inconclusive)

Query :: Queued: COc1cccc(C(=O)N(Cc2ccccc2)Cc2cc3cc4c(cc3nc2O)OCCO4)c1
Result :: 0.224 µM (inconclusive)

Query :: And the next one, CN(C)c1ccc(-c2nc(NCCN3CCOCC3)c3ccccc3n2)cc1 ?
Result :: 25.1 µM (inconclusive)

Query :: Continue with NCCSc1nc2ccccc2s1
Result :: 3.98 µM (inconclusive)

Query :: Now consider COc1cc(OC)c(OC)cc1/C=N\CC1(c2ccccc2)CCCC1 and answer again.
Result :: 28.2 µM (inconclusive)

Query :: And COc1ccccc1CNCCCCCCNCCCCCCCCNCCCCCCNCc1ccccc1OC ?
Result :: 31.6 µM (inconclusive)

Query :: Same thing, different compound: CCOc1ccc(C(=O)NC(=S)N(Cc2ccccc2)Cc2ccccc2)cc1
Result :: 6.31 µM (inconclusive)

Query :: And COC(=O)[C@@]1(Cc2ccccc2)[C@H]2c3cc(C(=O)N4CCCC4)n(Cc4ccc(OC)c(OC)c4)c3C[C@H]2CN1C(=O)c1ccccc1 ?
Result :: 31.6 µM (inconclusive)

Query :: Also FC(F)Sc1ccc(NC2=NN=C(c3ccc4c(c3)OCCO4)CS2)cc1 ?
Result :: 14.1 µM (inconclusive)
